experiment: in vivo; details: male, C57BL/6, mouse, inhaled or intranasal, 10 mg/kg

smiles.repr: COc1cc(C(=O)O[C@@H]2Cc3c(O)cc(O)cc3O[C@H]2c2cc(O)c(O)c(O)c2)c(F)c(O)c1O
Cmax (ng/mL): 489

----------
assay: in vivo; conditions: male, C57BL/6, mouse
endpoint.name: concentration at 1 h (ng/g)

smiles.repr: COc1cc(C(=O)O[C@@H]2Cc3c(O)cc(O)cc3O[C@H]2c2cc(O)c(O)c(O)c2)c(F)c(O)c1O
endpoint.name: concentration at 1 h
observed.measurement: 120

----------
experiment: in vivo; details: male, C57BL/6, mouse, iv, 5 mg/kg
endpoint.name: AUC(0-t) (ng·h/mL)

compound: COc1cc(C(=O)O[C@@H]2Cc3c(O)cc(O)cc3O[C@H]2c2cc(O)c(O)c(O)c2)c(F)c(O)c1O [Compound 68]
display.unit: ng·h/mL
observed.measurement: 334

----------
Recorded measurements of pIC50, one per entry
Target: DYRK1A (HT-497, 6×His tagged rat truncated DYRK1A isoform X1 residues 1-497) (Rattus norvegicus (Rat), UniProt Q63470)
Assay: DYRK1A ELISA assay (HT-PRD phosphorylation)
Conditions: 100 µM ATP, 5 ng HT-497, 30 min at 30° C.
Procedure: Compounds of Table 1, above, were examined in vitro for activity against DYRK1A, DYRK1B, DYRK2 via an ELISA assay. DYRK1A assay. […] After blocking, wells were washed extensively with dilution buffer before subjecting to phosphorylation. […] The readings were then recorded for subsequent IC50 calculation. […] Dilution factors for both mAb 3D3 and secondary antibody were pre-determined for each batch of antibody to ensure that neither antibody was limiting in the assay. […]
pIC50: −log10 of the molar value.

compound: CCCCCC(=O)Oc1cc(O)c2c(c1)O[C@H](c1cc(O)c(O)c(O)c1)[C@H](OC(=O)c1cc(O)c(O)c(O)c1)C2 [Compound 71]
pIC50: < 7.00
//
compound: O=C(O[C@@H]1Cc2c(O)cc(O)cc2O[C@H]1c1cc(O)c(O)c(O)c1)c1cc(O)c(O)cc1C(F)(F)F [Compound 62]
pIC50: < 7.00
//
compound: O=C(O[C@H]1Cc2c(O)cc(O)cc2O[C@@H]1c1cc(O)c(O)c(O)c1)c1ccc(O)cc1 [Compound 20]
pIC50: < 6.00
//
compound: O=C(O[C@@H]1Cc2c(O)cc(O)cc2O[C@@H]1c1ccc(O)c(O)c1)c1cc(O)c(O)c(O)c1 [Compound 6]
pIC50: < 7.00
//
compound: Nc1ncc(C(=O)O[C@@H]2Cc3c(O)cc(O)cc3O[C@H]2c2cc(O)c(O)c(O)c2)cc1O [Compound 36]
pIC50: < 6.00
//
compound: CCNC(=O)Oc1c(O)cc([C@H]2Oc3cc(O)cc(O)c3C[C@H]2OC(=O)c2cc(O)c(O)c(O)c2)cc1O [Compound 72]
pIC50: < 7.00
//
compound: COc1cc(C(=O)O[C@@H]2Cc3c(O)cc(O)cc3O[C@H]2c2cc(O)c(O)c(O)c2)c(F)c(O)c1O [Compound 68]
pIC50: > 7.00

----------
assay: in vivo; conditions: male, C57BL/6, mouse, inhaled or intranasal, 30 mg/kg

smiles.repr: COc1cc(C(=O)O[C@@H]2Cc3c(O)cc(O)cc3O[C@H]2c2cc(O)c(O)c(O)c2)c(F)c(O)c1O
AUC(0-t): 4950 ng·h/mL
